Target: phosphorylated EGFR (pEGFR) (Homo sapiens)
Construct: performed to measure phosphorylated EGFR levels using A431 cells; endogenous in cells
Sequence (P00533 25-1210): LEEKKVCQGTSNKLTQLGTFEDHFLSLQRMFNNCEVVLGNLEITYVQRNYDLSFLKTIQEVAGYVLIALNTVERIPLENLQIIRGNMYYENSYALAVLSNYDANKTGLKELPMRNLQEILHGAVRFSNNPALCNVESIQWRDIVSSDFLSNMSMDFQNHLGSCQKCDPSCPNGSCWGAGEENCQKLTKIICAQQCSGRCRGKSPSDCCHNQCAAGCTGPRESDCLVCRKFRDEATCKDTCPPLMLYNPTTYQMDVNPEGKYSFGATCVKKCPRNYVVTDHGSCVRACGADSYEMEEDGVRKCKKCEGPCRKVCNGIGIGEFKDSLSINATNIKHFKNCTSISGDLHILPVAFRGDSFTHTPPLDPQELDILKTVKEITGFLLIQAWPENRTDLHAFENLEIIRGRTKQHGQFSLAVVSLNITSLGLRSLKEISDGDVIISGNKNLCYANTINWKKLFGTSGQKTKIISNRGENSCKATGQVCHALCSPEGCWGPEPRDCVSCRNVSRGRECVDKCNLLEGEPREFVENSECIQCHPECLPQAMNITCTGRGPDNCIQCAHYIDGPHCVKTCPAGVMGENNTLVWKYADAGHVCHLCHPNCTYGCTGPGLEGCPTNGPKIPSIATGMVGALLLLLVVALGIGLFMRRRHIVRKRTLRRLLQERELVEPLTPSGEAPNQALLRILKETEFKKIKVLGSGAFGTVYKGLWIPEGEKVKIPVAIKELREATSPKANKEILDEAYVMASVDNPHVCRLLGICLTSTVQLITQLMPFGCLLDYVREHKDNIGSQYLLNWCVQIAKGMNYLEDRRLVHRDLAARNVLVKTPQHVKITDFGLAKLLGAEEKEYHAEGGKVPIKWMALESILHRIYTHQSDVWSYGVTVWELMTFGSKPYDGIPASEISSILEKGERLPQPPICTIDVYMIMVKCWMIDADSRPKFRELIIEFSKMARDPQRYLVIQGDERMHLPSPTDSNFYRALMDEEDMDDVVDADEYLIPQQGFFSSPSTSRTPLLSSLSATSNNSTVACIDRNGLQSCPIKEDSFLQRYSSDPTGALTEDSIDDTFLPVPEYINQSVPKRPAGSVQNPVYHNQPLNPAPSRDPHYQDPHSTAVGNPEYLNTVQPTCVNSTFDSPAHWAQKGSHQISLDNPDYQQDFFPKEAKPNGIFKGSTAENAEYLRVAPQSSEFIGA
Assay: Detection of phosphorylated EGFR (pEGFR) in EGF-stimulated A431 cells (AlphaLISA)
Conditions: A431 cells (10% FBS), 4 hours incubation, EGF 30 ng/mL for 10 minutes
Description: Enzyme-linked immunosorbent assays (ELISA) were performed to measure phosphorylated EGFR levels using A431 cells (10% FBS). A431 (1.0*10^4 cells/40 μl/well) cells were seeded in 384 well. […] Acceptor mix (PerkinElmer, cat #ALSU-PEGFR-A50K) was prepared just before use and 5 μL was dispensed to all the wells, followed by a 1.5-2 h incubation at room temperature in dark. […] Plates were read on the Envision (PerkinElmer) using standard AlphaLISA settings. […]
assay readout: IC50 (µM)

Answered cases to consult:
{"smiles str": "C=CC(=O)N1CCN(c2ncc3ncnc(Nc4ccc(Cc5ccc6c(c5)ncn6C)c(C)c4)c3n2)[C@@H](C)C1", "IC50 [µM]": 3.55}
{"smiles str": "CC#CC(=O)N1CCN(c2ccc3ncnc(Nc4ccc(O[C@@H]5CCCOC5)c(C)c4)c3n2)CC1", "IC50 [µM]": 3.82}
{"smiles str": "C=CC(=O)N1CC[C@@H](Oc2ccc3ncnc(Nc4ccc(Oc5ccc6c(c5)ncn6C)c(C)c4)c3c2)C1", "IC50 [µM]": 2.88}
{"smiles str": "C=CC(=O)N1CCN(c2ncc3ncnc(Nc4ccc(Oc5ccc6c(c5)ncn6C)c(C)c4)c3n2)CC1", "IC50 [µM]": 1.48}
{"smiles str": "CC#CC(=O)N1C2CC1CN(c1ccc3ncnc(Nc4ccc(Oc5ccn6ncnc6c5)c(C)c4)c3n1)C2", "IC50 [µM]": 5.43}

P = C=CC(=O)N1CCN(c2ccc3ncnc(Nc4ccc(Cc5ccc6c(c5)ncn6C)c(C)c4)c3c2F)C[C@H]1C
Q = C=CC(=O)N1CCN(c2ccc3ncnc(Nc4ccc(Oc5ccc6c(c5)ncn6C)c(C)c4)c3n2)[C@@H](C)C1
Req: Which one would you say has the larger IC50 value: P , or Q ? Please respond with the label that marks your chosen entry.
Resp: P
(P: 5.13 µM, Q: 2.49 µM)

src = patent US20250136595A1
